# melting point listing for each entry below

Below are worked cases with known answers.
molecule="O=c1/c(=C/c2ccc(O)cc2O)sc2nc3ccccc3n12 [Compound 3]" value_type="melting point" reported="263.7 to 268.3 °C"
molecule="CCOc1cc(/C=c2\\sc3nc4ccccc4n3c2=O)ccc1O [Compound 5]" value_type="melting point" reported="210.7 °C"
molecule="COc1cc(/C=c2\\sc3nc4ccccc4n3c2=O)cc(OC)c1O [Compound 12]" value_type="melting point" reported="261.9 to 269.1 °C"
molecule="O=c1/c(=C/c2ccc(O)c(Br)c2)sc2nc3ccccc3n12 [Compound 13]" value_type="melting point" reported="293.7 to 297 °C"
molecule="COc1ccc(/C=c2\\sc3nc4ccccc4n3c2=O)cc1OC [Compound 8]" value_type="melting point" reported="236.7 to 236.9 °C"

IN: Given the entry O=c1/c(=C/c2ccc(O)cc2)sc2nc3ccccc3n12 [Compound 1] , report its measured melting point.
OUT: ≥ 300 °C

IN: Given the entry COc1ccc(/C=c2\sc3nc4ccccc4n3c2=O)c(OC)c1 [Compound 9] , report its measured melting point.
OUT: 250.1 to 257.5 °C

IN: Given the entry COc1ccc(/C=c2\sc3nc4ccccc4n3c2=O)cc1 [Compound 7] , report its measured melting point.
OUT: 239.5 to 241.8 °C
